Kindly supply the reported Ki values for the records listed here.
# targetSystem: COLLAGENASE (Homo sapiens, UniProt P03956)
# Sequence (P03956 100-469): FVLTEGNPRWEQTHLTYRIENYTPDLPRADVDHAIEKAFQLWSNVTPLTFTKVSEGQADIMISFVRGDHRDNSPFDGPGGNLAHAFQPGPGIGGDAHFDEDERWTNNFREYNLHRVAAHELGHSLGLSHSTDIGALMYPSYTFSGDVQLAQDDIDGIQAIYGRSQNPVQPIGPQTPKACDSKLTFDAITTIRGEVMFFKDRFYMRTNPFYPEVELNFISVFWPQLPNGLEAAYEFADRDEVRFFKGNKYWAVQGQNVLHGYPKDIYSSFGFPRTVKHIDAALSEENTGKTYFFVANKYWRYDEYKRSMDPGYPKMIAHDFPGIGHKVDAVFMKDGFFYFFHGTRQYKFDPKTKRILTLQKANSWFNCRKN
Respond with the bare value in µM.

Request: So what's the measured Ki for this one? CC(=O)N1CCC[C@H]1C(=O)N[C@@H](C)C(=O)N[C@@H](C)P(=O)(O)CC(CCc1ccccc1)C(=O)N[C@@H](CC(C)C)C(=O)Nc1ccccc1 (stereo partly drawn) [(R)CH(CH3)NHAlaProAc]
Response: 2.9

Request: Field entry: CC(C)C[C@H](NC(=O)C(CCc1ccccc1)CP(=O)(O)CCCCN1C(=O)c2ccccc2C1=O)C(=O)Nc1ccccc1 (some centres unmarked)
Response: 1

====

# targetSystem: GELATINASE (Homo sapiens)
# Sequence (P08253 110-660): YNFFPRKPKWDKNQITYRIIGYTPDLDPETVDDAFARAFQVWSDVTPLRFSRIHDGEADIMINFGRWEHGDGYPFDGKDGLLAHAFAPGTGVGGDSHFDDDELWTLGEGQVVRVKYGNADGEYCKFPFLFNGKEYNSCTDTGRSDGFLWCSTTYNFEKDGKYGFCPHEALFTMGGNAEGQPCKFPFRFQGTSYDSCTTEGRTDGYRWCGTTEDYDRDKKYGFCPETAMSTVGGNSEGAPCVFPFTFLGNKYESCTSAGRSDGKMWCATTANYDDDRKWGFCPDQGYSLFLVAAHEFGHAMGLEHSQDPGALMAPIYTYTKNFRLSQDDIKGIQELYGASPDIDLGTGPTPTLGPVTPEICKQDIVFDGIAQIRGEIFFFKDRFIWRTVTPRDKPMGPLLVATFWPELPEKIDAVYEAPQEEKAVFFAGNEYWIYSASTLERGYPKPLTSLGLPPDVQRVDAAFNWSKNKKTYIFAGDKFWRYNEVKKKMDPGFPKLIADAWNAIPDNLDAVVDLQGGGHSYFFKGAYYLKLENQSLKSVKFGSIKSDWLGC
# experimentalProtocol: inhibition of cleavage of fluorogenic peptide DNP-Pro-Leu-Gly-Leu-Trp-Ala-(D)-Arg-NH2 by gelatinase
# Type: biochemical
# runParameters: Human Fibroblast; SE in parentheses
recordedEndpoint: Ki (µM)
Respond with the bare value in µM.

Request: So what's the measured Ki for this one? CC(C)C[C@H](NC(=O)C(CCc1ccccc1)CP(=O)(O)CCCCN1C(=O)c2ccccc2C1=O)C(=O)Nc1ccccc1 (stereo partly shown) [(CH2)4 NPhth]
Response: 0.026

Request: Field entry: CC(=O)N1CCC[C@H]1C(=O)N[C@@H](C)C(=O)N[C@@H](C)P(=O)(O)CC(CCc1ccccc1)C(=O)N[C@@H](CC(C)C)C(=O)Nc1ccccc1 (stereo partly drawn) [(R)CH(CH3)NHAlaProAc]
Response: 0.0026

Request: Field entry: CC(C)C[C@H](NC(=O)C(CCc1ccccc1)CP(=O)(O)CCCCNC(=O)NC(C)C)C(=O)Nc1ccccc1 (stereo partly shown) [(CH2)4 NCHCONH-i-C3 H7]
Response: 0.0056

Request: Field entry: CC(C)COC(=O)NCCCCP(=O)(O)CC(CCc1ccccc1)C(=O)N[C@@H](CC(C)C)C(=O)Nc1ccccc1 (stereo partly shown) [(CH2)4 NCO2 -i-C4 H4]
Response: 0.034
